Each entry below lists one item and its recorded pEC50 value.
tested on: L. major (MHOM/IL/SU73/WR779); assay: Luciferase amastigote macrophage assay in RAW 264.7; format: cell-based; conditions: Leishmania major, RAW264.7, 96 h, read-out: EC50 L. major
pEC50: −log10 of the molar value.

{"Compound": "O=[N+]([O-])c1cn2c(n1)O[C@@H](COc1ccc(-c3ccc(F)cc3)nc1)CC2", "pEC50": 6.47}
{"Compound": "C[C@@H]1[C@H](O)[C@@H](C)/C=C/C=C/C=C/C=C/C=C/C=C/C=C/[C@H](O[C@@H]2O[C@H](C)[C@@H](O)[C@H](N)[C@@H]2O)C[C@@H]2O[C@](O)(C[C@@H](O)C[C@@H](O)[C@H](O)CC[C@@H](O)C[C@@H](O)CC(=O)O[C@H]1C)C[C@H](O)[C@H]2C(=O)O [Amphotericin B, amphotericin B deoxycholate, reference compound]", "pEC50": 7.52}
{"Compound": "Cc1c(C(=O)Nc2ccc3c(c2)B(O)OC3)nnn1-c1ccccn1", "pEC50": 7.15}
{"Compound": "O=[N+]([O-])c1cn2c(n1)OC[C@H](Oc1ccc(OC(F)(F)F)cc1)C2", "pEC50": 7.52}

====

experiment: in vitro; details: human

{"Compound": "Cc1c(C(=O)Nc2ccc3c(c2)B(O)OC3)nnn1-c1ccccn1 [DNDI-6148]", "EC50": "181 µM"}
{"Compound": "O=[N+]([O-])c1cn2c(n1)OC[C@H](Oc1ccc(OC(F)(F)F)cc1)C2 [DNDI-8219]", "EC50": "> 200 µM"}
